Reported Ki values for a set of compounds
studyTarget: BmDHFR (Brugia malayi, UniProt A0A4E9FIQ4)
experimentalDetails: biochemical
Assay type: biochemical
Protocol: Compounds (-)-epicatechin, (-)-epicatechin gallate, and vitexin were tested as inhibitors of WbDHFR and BmDHFR. The compounds (-)-epicatechin and (-)-epicatechin gallate were synthesized as described previously. […] Disappearance of DHF and NADPH was observed by measuring absorbance at 340 nm to measure the DHFR activity in a SpectraMax M3 microplate reader. […] All experiments were completed in triplicate. A linear equation was fitted to the data at each substrate concentration. […]

Fill in: Ki of COc1cc(Cc2cnc(N)nc2N)cc(OC)c1OC [Trimethoprim, trimethoprim] is ___ 15 µM

Moving on to another compound below.
Fill in: Ki of Nc1nc(N)c2nc(CNc3ccc(C(=O)N[C@@H](CCC(=O)O)C(=O)O)cc3)cnc2n1 [Aminopterin, aminopterin] is ___ < 0.0017 µM

src = paper PMC5963757
